target: GST tagged truncated human mutant G2019S LRRK2 (Homo sapiens (Human), UniProt Q5S007, G2019S); test: LRRK2 Km ATP LanthaScreen Assay; assay type: biochemical; details: 134 μM ATP (Km ATP), LRRKtide substrate, negative log of mean IC50 (molar)
Sequence (Q5S007 970-2527 G2019S): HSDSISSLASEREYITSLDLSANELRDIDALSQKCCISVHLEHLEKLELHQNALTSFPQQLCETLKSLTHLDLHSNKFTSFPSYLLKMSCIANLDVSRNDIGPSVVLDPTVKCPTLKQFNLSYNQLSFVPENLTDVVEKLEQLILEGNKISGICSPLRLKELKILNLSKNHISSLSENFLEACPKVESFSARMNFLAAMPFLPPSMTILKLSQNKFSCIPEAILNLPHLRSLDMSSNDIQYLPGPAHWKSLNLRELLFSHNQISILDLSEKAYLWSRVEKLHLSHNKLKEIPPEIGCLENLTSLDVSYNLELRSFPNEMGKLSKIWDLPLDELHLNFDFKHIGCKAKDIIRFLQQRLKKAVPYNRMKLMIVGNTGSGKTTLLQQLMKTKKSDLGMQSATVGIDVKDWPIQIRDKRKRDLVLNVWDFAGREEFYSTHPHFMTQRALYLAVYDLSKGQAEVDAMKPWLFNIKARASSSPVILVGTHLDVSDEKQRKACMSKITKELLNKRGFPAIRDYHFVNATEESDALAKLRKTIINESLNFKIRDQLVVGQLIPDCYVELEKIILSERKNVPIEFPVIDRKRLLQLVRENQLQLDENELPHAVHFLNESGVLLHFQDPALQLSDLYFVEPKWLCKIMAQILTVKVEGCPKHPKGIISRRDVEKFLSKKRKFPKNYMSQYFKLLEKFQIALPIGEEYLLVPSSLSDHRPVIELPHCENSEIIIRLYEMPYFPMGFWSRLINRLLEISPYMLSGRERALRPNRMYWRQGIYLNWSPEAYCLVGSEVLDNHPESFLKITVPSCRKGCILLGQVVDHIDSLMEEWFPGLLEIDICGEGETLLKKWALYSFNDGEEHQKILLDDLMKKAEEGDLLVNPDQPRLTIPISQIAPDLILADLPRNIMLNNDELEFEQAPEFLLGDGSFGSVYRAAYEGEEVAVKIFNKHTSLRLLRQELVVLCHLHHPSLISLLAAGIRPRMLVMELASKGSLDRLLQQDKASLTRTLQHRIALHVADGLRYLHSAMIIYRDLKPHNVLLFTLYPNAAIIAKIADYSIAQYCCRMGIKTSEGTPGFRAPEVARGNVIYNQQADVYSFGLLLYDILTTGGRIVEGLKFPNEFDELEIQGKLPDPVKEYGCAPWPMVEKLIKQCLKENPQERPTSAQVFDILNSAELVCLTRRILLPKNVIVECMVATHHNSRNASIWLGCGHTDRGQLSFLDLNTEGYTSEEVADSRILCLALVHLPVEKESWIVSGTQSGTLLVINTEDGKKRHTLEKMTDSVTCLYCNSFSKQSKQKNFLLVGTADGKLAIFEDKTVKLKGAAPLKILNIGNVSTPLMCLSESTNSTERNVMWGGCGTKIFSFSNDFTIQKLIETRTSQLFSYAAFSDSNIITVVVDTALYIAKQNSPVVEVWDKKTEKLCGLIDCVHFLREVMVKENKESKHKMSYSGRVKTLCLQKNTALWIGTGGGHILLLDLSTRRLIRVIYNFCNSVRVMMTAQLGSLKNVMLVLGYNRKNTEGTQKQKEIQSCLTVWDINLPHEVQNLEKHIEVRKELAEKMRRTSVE
measurementLabel: LRRK2 pIC50
Form: value (number only, do not type unit).

Q) Can you look up the measured LRRK2 pIC50 of O=C(Nc1cnn(C2CCC2)c1)c1csc(-c2cnn3c2CCC3)n1 for me?
A) 8.01

Q) Same again, this time with COc1nn(C)cc1NC(=O)c1csc(-c2cn[nH]c2)n1
A) 7.13

Q) // same read-out, input: CC(C)n1cc(NC(=O)c2coc(-c3cn[nH]c3)n2)cn1
A) 6.36

Q) Queued: Cn1cnc(-c2nc(C(=O)Nc3cnn(C4CCC4)c3)cs2)c1
A) 8.04

Q) Try the compound O=C(Nc1cnn(C2CCOCC2)c1)c1csc(-c2cn[nH]c2)n1
A) 7.37

Q) Repeat for the following compound: CC(=O)Nc1nc(C(=O)Nc2cnn(C3CCC3)c2)cs1
A) 6.18

Q) Please do the same for O=C(Nc1cnn(C[C@H]2CCNC2)c1)c1csc(-c2cn[nH]c2)n1 as well.
A) 6.84

Q) What do you have for O=C(Nc1cnn(-c2ccccc2)c1)c1csc(-c2cn[nH]c2)n1 ?
A) 7.56

Q) Similarly, Cc1nn(C(C)C2CC2)cc1NC(=O)c1csc(-c2cn[nH]c2)n1 (single isomer, unassigned) [Example 2-4] ?
A) 6.82

Q) # repeat for CCn1cc(NC(=O)c2csc(-c3cn[nH]c3)n2)c(-c2nnc3n2CCCC3)n1
A) 7.53

Q) Try this compound too: COCCn1cc(NC(=O)c2csc(-c3cn[nH]c3)n2)cn1
A) 7.00

Q) Can you handle CC(=O)Nc1cccc(C(=O)Nc2cnn(C3CCC3)c2)n1 next?
A) 6.33

Q) Also check Cn1cc(NC(=O)c2csc(-c3cn[nH]c3)n2)c(C(F)(F)F)n1
A) 7.10

Q) Proceed to O=C(Nc1cn(CC2CCCO2)nc1C(F)F)c1csc(-c2cn[nH]c2)n1 (stereo not drawn)
A) 7.68

Q) Do the same for Cn1ccc(-c2cccc(C(=O)Nc3cnn(CC4CCC4)c3)n2)n1 please
A) 6.53

Q) Query O=C(Nc1cnn(CC2CCC2)c1)c1cccc(-c2cncnc2)n1 next
A) 5.74

Q) Likewise for O=C(Nc1cnn(C2CCC2)c1)c1cccc(-n2cccn2)n1 ?
A) 6.76

Q) For N#CC1(c2cccc(C(=O)Nc3cnn(CC4CCC4)c3)n2)CC1 then?
A) 6.90

###

Provide the reported LRRK2 pIC50 of each item.
target: GST tagged truncated human mutant G2019S LRRK2 (Homo sapiens (Human), UniProt Q5S007, G2019S); assay: LRRK2 Km ATP LanthaScreen Assay; type: biochemical; details: 134 μM ATP (Km ATP), LRRKtide substrate, negative log of mean IC50 (molar)
Write the number on its own, no unit after it.

Q) What value of LRRK2 pIC50 has been reported for the following molecule? Cn1cc(-c2nc(C(=O)Nc3cn(C4CC4)nc3C3CC3)cs2)cn1 [Example 12-3]
A) 7.84

Q) Subsequent entry: O=C(Nc1cnn(C2CCC2)c1)c1csc(-c2cccnc2)n1 [Example 9-39]
A) 7.06

Q) Record: O=C(Nc1cnn(CC2CCNCC2)c1)c1csc(-c2cn[nH]c2)n1 [Example 7-4]
A) 6.79

Q) Would you kindly repeat that for O=C(Nc1cnn(C2CCC2)c1C1CC1)c1csc(-c2cn[nH]c2)n1 [Example 3-3] ?
A) 7.16

Q) For CC(C1CC1)n1ncc(NC(=O)c2csc(-c3cn[nH]c3)n2)c1C(F)F (single isomer, unassigned) [Example 3-4] then?
A) 5.69

Q) Okay, and Cn1cc(-c2nc(C(=O)Nc3cnn(C4CCC4)c3)cs2)cn1 [Example 9-28] ?
A) 7.85

Q) How about CS(=O)(=O)CC1(Cn2cc(NC(=O)c3csc(-c4cn[nH]c4)n3)cn2)CCC1 [Example 1-44] ?
A) 7.91

Q) Next: CC(C1CC1)n1cc(NC(=O)c2csc(-c3cn[nH]c3)n2)c(C(F)F)n1 (centres unmarked) [Example 3-1]
A) 7.27

###

target: GST tagged truncated human mutant G2019S LRRK2 (Homo sapiens (Human), UniProt Q5S007, G2019S); assay: LRRK2 Km ATP LanthaScreen Assay; assay type: biochemical; conditions: 134 μM ATP (Km ATP), LRRKtide substrate, negative log of mean IC50 (molar)
measurementLabel: LRRK2 pIC50
Simply state the number, no unit and no words.

Q) Entry under review: O=C(Nc1cnn(C2CC2)c1)c1csc(-c2ccn[nH]2)n1 . Reported LRRK2 pIC50?
A) 7.06

Q) Moving on to O=C(Nc1cnn(CCC2CCNCC2)c1)c1csc(-c2cn[nH]c2)n1
A) 7.38

Q) Same thing, different molecule: O=C(Nc1cnn(C2CCC2)c1)c1csc(-c2cnn(C(F)F)c2)n1
A) 7.50

Q) Let us now turn to O=C(Nc1cn(CC(F)F)nc1C(F)F)c1csc(-c2cn[nH]c2)n1
A) 7.58

Q) Okay, and COc1nn(CC(F)(F)F)cc1NC(=O)c1csc(-c2cnn(C)c2)n1 ?
A) 7.06

Q) Now this one: CC1(Cn2cc(NC(=O)c3csc(-c4cn[nH]c4)n3)cn2)CCC1
A) 7.92

Q) Also check CCOCCn1cc(NC(=O)c2csc(-c3cn[nH]c3)n2)c(C(F)F)n1
A) 6.97

Q) Try this molecule too: COC(=O)c1nn(C)cc1NC(=O)c1csc(-c2cn[nH]c2)n1
A) 8.66

Q) Input CC1COc2c(-c3cccc(C(=O)Nc4cnn(CC5CCC5)c4)n3)cnn2C1 (stereo not drawn)
A) 6.87

###

biological target: GST tagged truncated human mutant G2019S LRRK2 (Homo sapiens (Human), UniProt Q5S007, G2019S); experiment: LRRK2 Km ATP LanthaScreen Assay; format: biochemical; settings: 134 μM ATP (Km ATP), LRRKtide substrate, negative log of mean IC50 (molar)
measurementLabel: LRRK2 pIC50
Answer field: number only, no words.

Q) Could you tell me which LRRK2 pIC50 is on file for O=C(Nc1cnn(C[C@@H]2CCNC2)c1)c1csc(-c2cn[nH]c2)n1 ?
A) 6.25

Q) Would you kindly repeat that for Cn1cc(-c2nc(C(=O)Nc3cnn(CC4CCC4)c3)cs2)cn1 ?
A) 7.74

Q) Check O=C(Nc1cnn(CC2CCC2)c1)c1cccc(-c2cnn(Cc3ccncc3)c2)n1 too.
A) 6.18

Q) Same for COc1cccc(C(=O)Nc2cnn(C3CCC3)c2)n1
A) 5.35

Q) What would you report for Cc1nn(C2CCC2)cc1NC(=O)c1csc(-c2cn[nH]c2)n1 ?
A) 7.83

###

target: GST tagged truncated human mutant G2019S LRRK2 (Homo sapiens (Human), UniProt Q5S007, G2019S); experiment: LRRK2 Km ATP LanthaScreen Assay; type: biochemical; conditions: 134 μM ATP (Km ATP), LRRKtide substrate, negative log of mean IC50 (molar)
Can you tell me LRRK2 pIC50 for the items I'm about to list?
The answer should be a number; do not append a unit.

Q) Reported LRRK2 pIC50 for CC(C)Nc1nc(C(=O)Nc2cnn(C3CCC3)c2)cs1 [Example 4-3] : what is it?
A) 6.19

Q) Queued: O=C(Nc1cnn(C2CCC2)c1)c1csc(-c2cnn3c2CCCC3)n1 [Example 9-27]
A) 8.25

Q) Can you handle O=C(Nc1cnn(C2CC2)c1)c1coc(-c2cn[nH]c2)n1 [Example 1-18] next?
A) 6.75

Q) What about O=C(Nc1cn(C2CC2)nc1C(F)F)c1csc(-c2cn[nH]c2)n1 [Example 1-38] ?
A) 8.23

Q) Further, for O=C(Nc1cnn(C2CCC2)c1)c1csc(-c2cc[nH]n2)n1 [Example 9-14] ?
A) 7.41

Q) Try this compound next: COCCn1cc(-c2cccc(C(=O)Nc3cnn(CC4CCC4)c3)n2)cn1 [Example 9-12]
A) 6.95

Q) Repeat with COc1nn(CC(F)(F)F)cc1NC(=O)c1csc(-c2cnn(S(C)(=O)=O)c2)n1 [Example 13-1]
A) 5.97

Q) Also need Cn1cc(NC(=O)c2csc(-c3cn[nH]c3)n2)c(C2CC2)n1 [Example 1-42] , thanks.
A) 7.74

Q) Can you check Cc1[nH]ncc1-c1nc(C(=O)Nc2cnn(C3CCC3)c2)cs1 [Example 9-18] next?
A) 7.59

Q) Entry to check: O=C(Nc1cnn(CCN2CCNCC2)c1)c1csc(-c2cn[nH]c2)n1 [Example 7-15]
A) 6.36

Q) Query O=C(Nc1cnn(C2CCC2)c1)c1cccc(N2CCCC2)n1 [Example 4-16] next
A) 6.04

Q) Same question, Cn1cc(NC(=O)c2csc(-c3cn[nH]c3)n2)c(CO)n1 [Example 6-1] this time
A) 7.47

Q) Try this compound too: O=C(Nc1cnn(-c2ccncc2)c1)c1csc(-c2cn[nH]c2)n1 [Example 1-8]
A) 8.07

Q) Now the same for COc1nn(CC(F)(F)F)cc1NC(=O)c1csc(-c2cn[nH]c2)n1 [Example 1-2]
A) 7.46

Q) How about this compound: CC(C1CC1)n1ncc(NC(=O)c2csc(-c3cn[nH]c3)n2)c1C(F)F (single isomer, unassigned) [Example 3-5]
A) 5.92

Q) For O=C(Nc1cnn(CC2CCC2)c1)c1cccc(-c2cnn3c2CCCC3)n1 [Example 9-13] then?
A) 7.68

Q) Next up: CSc1nc(C(=O)Nc2cnn(C3CCC3)c2)cs1 [Example 4-5]
A) 5.82

Q) Follow-up item: COCC1(Cn2cc(NC(=O)c3csc(-c4cn[nH]c4)n3)cn2)CCC1 [Example 1-29]
A) 7.82

Q) Consider next the compound Cn1cc(-c2nccc(C(=O)Nc3cnn(C4CCC4)c3)n2)cn1 [Example 9-23] in the same way.
A) 7.47

Q) Field entry: O=C(Nc1cnn(CC2CC2)c1)c1csc(-c2cn[nH]c2)n1 [Example 7-38]
A) 8.02

Q) Item: CCn1cc(NC(=O)c2csc(-c3cn[nH]c3)n2)c(C#N)n1 [Example 1-10]
A) 7.30

Q) What about this compound? CC(C)c1cc(-n2cc(NC(=O)c3csc(-c4cn[nH]c4)n3)cn2)ccn1 [Example 8-3]
A) 7.89

Q) Same for CCn1cc(-c2nc(C(=O)Nc3cn(CC(F)(F)F)nc3OC)cs2)cn1 [Example 12-4]
A) 6.57

Q) Next compound up: CSCC1(Cn2cc(NC(=O)c3csc(-c4cn[nH]c4)n3)cn2)CCC1 [Example 1-27]
A) 7.77

Q) And what about the compound CNC(=O)c1nn(C)cc1NC(=O)c1csc(-c2cn[nH]c2)n1 [Example 1-4] ?
A) 8.15

Q) Also check Cn1cc(-c2cccc(C(=O)Nc3cnn(CC4CCC4)c3)n2)cn1 [Example 9-25]
A) 7.38

Q) Same for N#CC1(Cn2cc(NC(=O)c3csc(-c4cn[nH]c4)n3)cn2)CCNCC1 [Example 7-28]
A) 6.71

Q) Do the same for CC(C)Oc1cccc(C(=O)Nc2cnn(C3CCC3)c2)n1 [Example 4-6] please
A) 7.10

Q) Ok, now CN(C)CCCn1cc(NC(=O)c2csc(-c3cn[nH]c3)n2)cn1 [Example 7-6]
A) 6.43

Q) Another: O=C(Nc1cnn(CC2CC(F)(F)C2)c1)c1csc(-c2cn[nH]c2)n1 [Example 1-35]
A) 7.77

Q) Same thing, different compound: Cn1cc(NC(=O)c2csc(-c3cn[nH]c3)n2)c(-c2ccc(F)cc2)n1 [Example 1-11]
A) 7.90

Q) How about this compound: O=C(Nc1cnn(Cc2ccc(F)cc2)c1)c1csc(-c2cn[nH]c2)n1 [Example 7-17]
A) 7.76

Q) Field entry: O=C(Nc1cnn(C2CCC2)c1)c1coc(-c2cn[nH]c2)n1 [Example 1-33]
A) 7.13

Q) Request: O=C(Nc1cnn(CC2CCC2)c1)c1cccc(-c2cnn(Cc3cccnc3)c2)n1 [Example 9-36]
A) 6.90

Q) Moving on to the next compound: Cn1cc(-c2nn(C)cc2NC(=O)c2csc(-c3cn[nH]c3)n2)cn1 [Example 1-31]
A) 7.95

Q) Also need Cc1n[nH]c(C)c1-c1cccc(C(=O)Nc2cnn(CC3CCC3)c2)n1 [Example 9-26] , thanks.
A) 6.09
